assay-details: A549 lung cancer cell viability effects, profiling panel, resazurin fluorescence, 24 h, PK04 Diversity Set (AID 1171); also: test concentration not given here
assay-context: higher = more signal, called active from +8 up or from −8 down
The source made the active and inactive calls.
# Lookup of reported z-score keyed by entry

compound: C=CC[C@H](OC(=O)Nc1ccc(SC)cc1)c1ccc(OCCO)cc1
z-score: 0.631 (inactive)
//
compound: C=CCNC(=O)[C@@H]1[C@H]2C(=O)O[C@H](c3ccccc3)[C@H](c3ccccc3)N2[C@H](c2ccc(O)cc2)[C@@]12C(=O)N(C(=O)OCCOC)c1ccc(C#CCCO)cc12
z-score: 0.292 (inactive)

Challenge: Which z-score is listed for COCCOC(=O)N1C(=O)[C@@]2(c3cc(C#CC4(O)CCCCCC4)ccc31)[C@H](C(=O)N1CCN(c3ncccn3)CC1)[C@H]1C(=O)O[C@H](c3ccccc3)[C@H](c3ccccc3)N1[C@@H]2c1ccccc1OCCO ?
Response given: -0.0171 (inactive)

Challenge: Which z-score is listed for COCC(=C=CC[C@H](O)c1cccc(OCCO)c1)C[C@H](O)COCc1ccccc1 ?
Response given: -0.359 (inactive)

Challenge: Which z-score is listed for CN1C(=O)C2C(C1=O)C1C=C(CCCO)C2C(c2cccs2)N1Cc1cc2c(cc1Br)OCO2 (configuration not stated) ?
Response given: -0.0723 (inactive)

Challenge: Which z-score is listed for [N-]=[N+]=Nc1ccccc1[C@@H]1OC(c2ccc(OCCCO)cc2)=N[C@]1(Cc1ccccc1)C(=O)NCc1ccccc1 ?
Response given: -1.48 (inactive)

Challenge: Which z-score is listed for CN1C(=O)[C@@]2(Cc3ccccc3)N=C(c3ccc(OCCCO)cc3)O[C@H]2c2ccccc21 ?
Response given: -0.788 (inactive)

----------
tested-on: NADPH oxidase 5 (Homo sapiens)
assay-details: NOX5-dependent H2O2 signal modulators, primary screen, NOX inhibitor project, cell-based, HEK293-NOX5, Amplex Red fluorescence (AID 1161)
assay-context: HEK293-NOX5, ionomycin, 45 min, higher = more signal
experimental-endpoint: z-score
I only need the number, thanks.

Use these answered entries as a reference point.
molecule: COC(=O)[C@@]1(Cc2ccccc2CN=[N+]=[N-])N=C(c2ccc(OCCCO)cc2)O[C@H]1c1ccccc1
result-number: -2.48
//
molecule: COCCOC(=O)N1C(=O)[C@@]2(c3cc(C#CCC(C(=O)OC)C(=O)OC)ccc31)[C@H](c1ccc(O)cc1)N1[C@H](c3ccccc3)[C@H](c3ccccc3)OC(=O)[C@H]1[C@@H]2C(=O)NC[C@H](O)c1ccccc1
result-number: 1.32

Challenge: Which z-score is listed for O=C(O)[C@H]1C[C@H]2C(=O)N[C@@H](Cc3ccccc3)C(=O)N2[C@H]1c1cccc(OCCO)c1 ?
Response given: -2.33

----------
tested-on: NADPH oxidase 4 (Homo sapiens)
assay-details: NOX4-dependent H2O2 signal modulators, primary screen, NOX inhibitor project, cell-based, HEK293-NOX4, tetracycline-induced, Amplex Red fluorescence (AID 1160)
assay-context: 45 min, higher = more signal, called active from +8 up or from −8 down
experimental-endpoint: z-score
I only need the number, thanks.

compound: CN(C)CCCCCCNC(=O)[C@@H]1C[C@@H]2C(=O)N[C@@H](CCCCN)C(=O)N2[C@@H]1c1ccc(O)cc1
z-score: 0.901

compound: CCCCC(=O)N(CCN1CCOCC1)[C@@H]1CC(C(=O)NCCO)=C[C@H](Oc2c(I)cc(CO)cc2OC)[C@H]1O
z-score: 0.577

compound: C=C(/C(=C/C[C@@H](OC(C)=O)c1ccc(CO)o1)c1cc(C(=O)OC)ccc1OC)C(C)C
z-score: -0.673

Challenge: Which z-score is listed for COc1ccc([Si](C)(C)[C@H]2[C@H](CCO)O[C@@]3(C(=O)N(Cc4ccccc4)c4ccc(N5C(=O)c6ccccc6Oc6ccccc65)cc43)[C@@H]2C)cc1 ?
Response given: 1.42

Challenge: Which z-score is listed for [N-]=[N+]=Nc1ccccc1[C@@H]1OC(c2ccc(OCCCO)cc2)=N[C@]1(Cc1ccccc1)C(=O)NCc1ccccc1 ?
Response given: 1.15

Challenge: Which z-score is listed for COc1ccc(C(O)C2C=CC3C(=O)N(c4ccccc4)C(=O)C3N2Nc2ccc(C(C)C)cc2)c2ccccc12 (stereo not given) ?
Response given: -2.59

Challenge: Which z-score is listed for CCCCCN1CC=CC23O[C@@H]4/C=C\CCC(C)OC(=O)C4[C@H]2C(=O)N(CCCCCCO)[C@@H]3C1=O (stereo not given in full) ?
Response given: 0.0532

Challenge: Which z-score is listed for COc1cc(NN2C(C(O)C3CCCCC3)C=CC3C(=O)N(C)C(=O)C32)cc(OC)c1OC (stereo not given) ?
Response given: -2.73

Challenge: Which z-score is listed for C=C(COC)C(=O)CC[C@H](OC(=O)c1cccnc1)c1ccc(CO)o1 ?
Response given: -0.159

Challenge: Which z-score is listed for COC(=O)[C@@]1(Cc2ccc(OC)cc2)[C@H]2c3cc(C(=O)N4CCCC4)n(Cc4cc(C)n(C)n4)c3C[C@H]2CN1C(=O)c1ccccc1 ?
Response given: -0.134

Challenge: Which z-score is listed for CN1C(=O)C2C(C1=O)C1C=C(CCCO)C2C(C2CC2)N1Cc1cc2c(cc1Br)OCO2 (stereo not given) ?
Response given: -0.389
